system: human LPA1 (Homo sapiens)
Construct: expressed in transfected cells; host or cells: Chinese hamster ovary (CHO) cells
measurement_protocol: LPA1 functional antagonist assay (calcium flux)
Assay type: cell-based
condition_set: human LPA1 functional antagonist assay; read-out: hLPA1 IC50
property: IC50 (nM)

Cc1nc(-c2nnn(C)c2CNC(=O)OCCC(F)(F)F)ccc1O[C@H]1CCC[C@H](C(=O)O)C1 [Example 181] has a reported IC50 of 96

1. Cc1nc(-c2nnn(C)c2CNC(=O)OCC2CCC2)cnc1O[C@H]1CCC[C@H](C(=O)O)C1 [Example 156]
2. Cc1nc(-c2nnn(C)c2CNC(=O)OCC(C)C2CC2)ccc1O[C@H]1CCC[C@H](C(=O)O)C1 (stereo partly shown) [Example 184]
IN: Hi there, can you help? I need to know whether 1 or 2 has lower measured IC50. // output: label of the selected item
OUT: 2

---

system: human LPA1 (Homo sapiens, UniProt Q92633)
Construct: expressed in transfected cells; host or cells: Chinese hamster ovary (CHO) cells
Sequence (Q92633 whole entry): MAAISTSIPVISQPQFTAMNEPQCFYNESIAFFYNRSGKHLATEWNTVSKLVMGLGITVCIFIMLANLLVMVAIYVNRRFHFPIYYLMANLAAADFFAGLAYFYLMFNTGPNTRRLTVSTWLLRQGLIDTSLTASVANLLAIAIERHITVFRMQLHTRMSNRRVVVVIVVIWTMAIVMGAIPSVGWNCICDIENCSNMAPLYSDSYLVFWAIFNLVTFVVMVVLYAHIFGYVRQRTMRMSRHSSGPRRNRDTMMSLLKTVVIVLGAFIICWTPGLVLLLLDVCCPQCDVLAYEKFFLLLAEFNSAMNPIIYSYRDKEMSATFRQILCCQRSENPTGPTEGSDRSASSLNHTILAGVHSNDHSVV
measurement_protocol: LPA1 functional antagonist assay (calcium flux)
Assay type: cell-based
condition_set: CHO cells overexpressing human LPA1; calcium flux induced by 10 nM LPA; read-out: hLPA1 IC50
pIC50: −log10 of the molar value.
property: pIC50

a. C[C@@H](OC(=O)Nc1c(-c2ccc(O[C@H]3CCC[C@H](C(=O)O)C3)cn2)nnn1C)c1ccccc1 [Example 91]
b. Cn1nnc(-c2ccc(O[C@H]3CCC[C@H](C(=O)O)C3)cn2)c1CNC(=O)OC1CCCC1 [Example 6]
IN: Select one. Lower pIC50: a or b State the label of the item chosen.
OUT: b

1. CCCCOC(=O)NCc1c(-c2ccc(O[C@H]3CCC[C@H](C(=O)O)C3)c(C(F)F)n2)nnn1C [Example 100]
2. COCCCOC(=O)NCc1c(-c2ccc(O[C@H]3CCC[C@H](C(=O)O)C3)c(C)n2)nnn1C [Example 53]
IN: Just tell me: smaller pIC50 value, 1 or 2 ? Bench note: the answer is the label of the chosen record.
OUT: 2

---

system: human LPA1 (Homo sapiens, UniProt Q92633)
Construct: expressed in transfected cells; host or cells: Chinese hamster ovary (CHO) cells
measurement_protocol: LPA1 functional antagonist assay (calcium flux)
Format: cell-based
condition_set: CHO cells overexpressing human LPA1; calcium flux induced by 10 nM LPA; read-out: hLPA1 IC50
property: IC50 (nM)

Solved cases (4 shown):
Documented IC50 of Cc1nc(-c2nnn(C)c2NC(=O)OCC2CC2C)ccc1O[C@H]1CCC[C@H](C(=O)O)C1 (mixture of isomers) [Example 223] : 52

Note to self: IC50 recorded for Cc1nc(-c2nnn(C)c2CN(C)C(=O)N(C)Cc2ccccc2)ccc1O[C@H]1CCC[C@H](C(=O)O)C1 [Example 115] was 166

IC50 reading for Cn1nnc(-c2ccc(O[C@H]3CCC[C@H](C(=O)O)C3)cn2)c1NC(=O)OCC1CC1 [Example 83] : 178

// recorded IC50 for Cc1nc(-c2nnn(C)c2CNC(=O)OCC2CCC2)ccc1O[C@H]1CCC[C@H](C(=O)O)C1 [Example 33] : 11

A. CCCCOC(=O)Nc1c(-c2ccc(O[C@H]3CCC[C@H](C(=O)O)C3)cn2)nnn1C [Example 89]
B. Cn1nnc(-c2ccc(O[C@H]3CCC[C@H](C(=O)O)C3)c(C(F)(F)F)n2)c1CNC(=O)OC1CCCC1 [Example 96]
IN: When the recorded IC50 values are compared, which is smaller: that of A or that of B ? // output: label of the selected item
OUT: B
(B: 33 nM, A: 66 nM)

a. CCCCCOC(=O)N(C)Cc1c(-c2ccc(O[C@H]3CCC[C@H](C(=O)O)C3)cn2)nnn1C [Example 15]
b. CCCN(C)C(=O)NCc1c(-c2ccc(O[C@H]3CCC[C@H](C(=O)O)C3)c(C)n2)nnn1C [Example 110]
IN: Which record shows the lower IC50: the first, a , or the second, b ? Please indicate the selected item by its label.
OUT: a
(a: 130 nM, b: 217 nM)

1. Cn1nnc(-c2ccc(O[C@H]3CCC[C@H](C(=O)O)C3)c(C(F)F)n2)c1CNC(=O)OCc1ccccc1 [Example 98]
2. CCCCC(=O)NCc1c(-c2ccc(O[C@H]3CCC[C@H](C(=O)O)C3)c(C)n2)nnn1C [Example 237]
IN: Please indicate which item has the smaller measured IC50: 1 versus 2 Indicate your choice by writing its label.
OUT: 1

I. CC[C@H](C)COC(=O)NCc1c(-c2ccc(O[C@H]3CCC[C@H](C(=O)O)C3)c(C)n2)nnn1C [Example 1]
II. Cc1nc(-c2nnn(C)c2CNC(=O)OC(C)(C)C)ccc1O[C@H]1CCC[C@H](C(=O)O)C1 [Example 30]
III. Cn1nnc(-c2ccc(O[C@@H]3CCC[C@@H](C(=O)O)C3)cc2)c1CNC(=O)OCCC1CC1 (racemic) [Example 39]
IV. Cc1nc(-c2nnn(C)c2NC(=O)OCCCF)ccc1O[C@H]1CCC[C@H](C(=O)O)C1 [Example 144]
IN: List by increasing IC50. As an answer, provide the labels arranged in the order called for.
OUT: I, II, IV, III
(I: 18 nM, II: 120 nM, IV: 254 nM, III: 457 nM)

---

system: human LPA1 (Homo sapiens, UniProt Q92633)
Construct: expressed in transfected cells; host or cells: Chinese hamster ovary (CHO) cells
measurement_protocol: LPA1 functional antagonist assay (calcium flux)
Type: cell-based
condition_set: CHO cells overexpressing human LPA1; calcium flux induced by 10 nM LPA; read-out: hLPA1 IC50
pIC50: −log10 of the molar value.
property: pIC50

Cn1nnc(-c2ccc(O[C@H]3CCC[C@H](C(=O)O)C3)cn2)c1CNC(=O)CC1CCCC1 has a reported pIC50 of 6.24

Noted for CCc1nc(-c2nnn(C)c2CNC(=O)OCC(C)(C)C)ccc1O[C@H]1CCC[C@H](C(=O)O)C1 : its pIC50 reads 7.03

# compound CCc1nc(-c2nnn(C)c2NC(=O)OCC(C)C)ccc1O[C@H]1CCC[C@H](C(=O)O)C1 ; its pIC50 = 7.77

P. Cc1nc(-c2nnn(C)c2CCNC(=O)OCc2ccccc2Cl)ccc1O[C@H]1CCC[C@H](C(=O)O)C1
Q. Cc1nc(-c2nnn(C)c2CNC(=O)OCc2ccccc2)ccc1O[C@@H]1CCC[C@@](F)(C(=O)O)C1 (racemic) [Example 209]
R. CC(C)COC(=O)NCc1c(-c2ccc(O[C@H]3CCC[C@H](C(=O)O)C3)c(C(F)F)n2)nnn1C
S. Cc1nc(-c2nnn(C)c2CNC(=O)OCCc2ccccc2)ccc1O[C@H]1CCC[C@H](C(=O)O)C1
T. CCC(NC(=O)NCc1c(-c2ccc(O[C@H]3CCC[C@H](C(=O)O)C3)c(C)n2)nnn1C)c1ccccc1 (mixture of isomers)
IN: Parameters: sort_field (pIC50), sort_dir (desc). Provide the labels, sequenced as the question asks.
OUT: Q, S, R, T, P

1. Cn1nnc(-c2ccc(O[C@H]3CCC[C@H](C(=O)O)C3)cn2)c1CNC(=O)OCC1CC(F)C1 (mixture of isomers)
2. CCc1nc(-c2nnn(C)c2CNC(=O)OC2CCCC2)ccc1O[C@H]1CCC[C@H](C(=O)O)C1
IN: Between item 1 and item 2 , which reported pIC50 is smaller? Please indicate the selected item by its label.
OUT: 1

I. Cc1nc(-c2nnn(C)c2CNC(=O)N(C)CCC2CC2)ccc1O[C@H]1CCC[C@H](C(=O)O)C1
II. Cc1nc(-c2nnn(C)c2NC(=O)N[C@H](C)C2CC2)ccc1O[C@H]1CCC[C@H](C(=O)O)C1
IN: Consider entries I and II . Which has the numerically lower pIC50? Your answer should be the label of the entry you select.
OUT: II
(II: 6.51, I: 6.95)

---

system: human LPA1 (Homo sapiens, UniProt Q92633)
Construct: expressed in transfected cells; host or cells: Chinese hamster ovary (CHO) cells
measurement_protocol: LPA1 functional antagonist assay (calcium flux)
Assay type: cell-based
condition_set: CHO cells overexpressing human LPA1; calcium flux induced by 10 nM LPA; read-out: hLPA1 IC50
Protocol: The effectiveness of compounds of the present invention as LPA1 inhibitors can be determined in an LPA1 functional antagonist assay as follows: The cells were then equilibrated to room temperature for 30 minutes before the assay. […] IC50 values were determined by fitting data to a 4-parameter logistic equation (GraphPad Prism, San Diego Calif.).
property: IC50 (µM)

Would you please look over these solved cases?
Notebook: CCCOC(=O)Nc1c(-c2ccc(O[C@H]3CCC[C@H](C(=O)O)C3)cn2)nnn1C [Example 221] , IC50 read as 0.042

Recorded result, CCCC1(COC(=O)NCc2c(-c3ccc(O[C@H]4CCC[C@H](C(=O)O)C4)c(C)n3)nnn2C)CC1 [Example 60] , IC50: 0.012

The reported IC50 of the compound Cc1nc(-c2nnn(C)c2CNC(=O)OCC2CCC2)c(F)cc1O[C@H]1CCC[C@H](C(=O)O)C1 [Example 212] was 0.112

I. CCCCN(C)S(=O)(=O)NCc1c(-c2ccc(O[C@H]3CCC[C@H](C(=O)O)C3)c(C)n2)nnn1C [Example 138]
II. Cc1nc(-c2nnn(C)c2CNC(=O)OCC2CC(C)(C)C2)ccc1O[C@H]1CCC[C@H](C(=O)O)C1 [Example 38]
IN: // compare measured IC50, left I , right II , return larger Label of pick, please.
OUT: I

a. CC(C)CCOC(=O)Nc1c(-c2ccc(O[C@H]3CCC[C@H](C(=O)O)C3)cn2)nnn1C [Example 85]
b. Cc1nc(-c2nnn(C)c2CNS(=O)(=O)NCC2CCCC2)ccc1O[C@H]1CCC[C@H](C(=O)O)C1 [Example 226]
c. Cc1nc(-c2nnn(C)c2CNC(=O)N[C@H](C)c2ccccc2)ccc1O[C@H]1CCC[C@H](C(=O)O)C1 [Example 130]
IN: Sort the compounds on IC50; start with the lowest figure. In your reply, arrange the labels in the requested order.
OUT: a, c, b

P. Cc1nc(-c2nnn(C)c2NC(=O)OC2CCCC2)ccc1O[C@H]1CCC[C@H](C(=O)O)C1 [Example 66]
Q. Cn1nnc(-c2ccc(O[C@H]3CCC[C@H](C(=O)O)C3)cn2)c1CNC(=O)OCCc1ccccc1 [Example 9]
R. CCCOC(=O)Nc1c(-c2ccc(O[C@H]3CCC[C@H](C(=O)O)C3)c(CC)n2)nnn1C [Example 233]
S. Cc1cccc(COC(=O)NCc2c(-c3ccc(O[C@H]4CCC[C@H](C(=O)O)C4)c(C)n3)nnn2C)c1 [Example 19]
T. Cc1nc(-c2nnn(C)c2CNC(=O)OCC2CC2)ccc1O[C@H]1CCC[C@H](C(=O)O)C1 [Example 7]
IN: Rank entries according to their IC50, from the largest number down. Lab note: record answer as labels in requested order.
OUT: R, Q, P, T, S

P. CCC1(COC(=O)NCc2c(-c3ccc(O[C@H]4CCC[C@H](C(=O)O)C4)cn3)nnn2C)CC1 [Example 51]
Q. Cc1nc(-c2nnn(C)c2CNC(=O)NC(C)c2ccccc2)ccc1O[C@H]1CCC[C@H](C(=O)O)C1 (mixture of isomers) [Example 129]
IN: Consider P and Q . Which of these has its IC50 at a higher number? Give the label under which the chosen entry appears.
OUT: Q
(Q: 0.142 µM, P: 0.062 µM)

a. CCCCOC(=O)NCc1c(-c2ccc(O[C@H]3CCC[C@H](C(=O)O)C3)c(C)n2)nnn1C [Example 3]
b. CCCOC(=O)NCc1c(-c2ccc(O[C@H]3CCC[C@H](C(=O)O)C3)c(CC)n2)nnn1C [Example 42]
c. Cc1nc(-c2nnn(C)c2NC(=O)NCc2ccccc2)ccc1O[C@H]1CCC[C@H](C(=O)O)C1 [Example 135]
IN: Your job: order these 3 records by IC50, ascending. A complete answer lists every label in the requested sequence.
OUT: a, c, b
